system: Rattus norvegicus; assay: Inhibition of sorbitol accumulation in lens of diabetic rats (streptozotocin treated) done for 30 minutes at 22 degree C in dark by using sorbitol dehydrogenase at 10 mg/kg/day; format: functional; conditions: Lens of camera-type eye, 0.5 h
measure-name: inhibition in vivo at 10 mg/kg/day (%)

>>> result_number("O=C(O)Cn1cc(Cc2nc3c(F)c(F)cc(F)c3s2)c2ccccc21")
77
>>> result_number("O=C(O)Cn1c(=O)n(Cc2ccc(Br)cc2F)c(=O)c2ccc(Cl)cc21")
2
>>> result_number("O=C(O)Cc1nn(Cc2nc3cc(C(F)(F)F)ccc3s2)c(=O)c2ccccc12")
9
>>> result_number("COc1ccc2c(C(=S)N(C)CC(=O)O)cccc2c1C(F)(F)F")
7
